Sourced from patent US7384966B2

System: MCF-7
protocol_description: MTT assay, 3 day exposure, MCF-7
Type: cell-based
condition_set: Homo sapiens, MCF7, MCF-7 (breast), value in nM; read-out: GI50 values in cell lines, MCF-7
outcome_measure: GI50 (nM)

Problem: Provide the reported GI50 (system: MCF-7) for COc1ccc(-c2nc3c(F)cccc3s2)cc1OC [Compound 2]
Result: 2.9

(a) COc1ccc(-c2nc3cc(F)ccc3s2)cc1OC(=O)N1CCOCC1 [Compound 19]
(b) CCOc1ccc(-c2nc3cc(F)ccc3s2)cc1OCC [Compound 46]
(c) COc1ccc(-c2nc3cc(F)ccc3s2)c(OC)c1OC [Compound 50]
Problem: Please list these compounds in decreasing order of GI50. When ranking, write the labels in the order the request describes.
Result: c, b, a
(c: 157 nM, b: 0.7 nM, a: 0.085 nM)
